study.system: human TLR2 (Homo sapiens, UniProt O60603+Q15399)
Sequence (O60603 21-784): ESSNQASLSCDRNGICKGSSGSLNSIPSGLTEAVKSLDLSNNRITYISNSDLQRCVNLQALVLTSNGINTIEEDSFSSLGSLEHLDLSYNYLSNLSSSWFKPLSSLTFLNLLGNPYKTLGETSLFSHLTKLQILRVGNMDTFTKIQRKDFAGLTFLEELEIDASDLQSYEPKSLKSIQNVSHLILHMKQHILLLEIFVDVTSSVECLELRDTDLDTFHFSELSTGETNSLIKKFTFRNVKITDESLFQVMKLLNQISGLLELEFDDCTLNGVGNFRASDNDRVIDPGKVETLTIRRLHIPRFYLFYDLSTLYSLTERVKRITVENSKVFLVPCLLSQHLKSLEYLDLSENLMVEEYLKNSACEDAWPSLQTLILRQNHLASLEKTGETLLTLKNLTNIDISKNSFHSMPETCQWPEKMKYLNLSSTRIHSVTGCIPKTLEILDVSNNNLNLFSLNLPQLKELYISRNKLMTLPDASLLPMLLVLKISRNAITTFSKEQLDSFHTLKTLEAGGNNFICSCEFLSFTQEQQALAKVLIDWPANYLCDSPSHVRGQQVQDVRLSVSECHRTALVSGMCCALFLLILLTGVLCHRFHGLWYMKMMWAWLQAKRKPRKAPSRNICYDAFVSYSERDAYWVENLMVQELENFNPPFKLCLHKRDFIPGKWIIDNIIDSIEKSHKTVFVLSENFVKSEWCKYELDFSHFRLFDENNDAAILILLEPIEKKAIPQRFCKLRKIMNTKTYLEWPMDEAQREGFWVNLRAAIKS
Sequence (Q15399 25-786): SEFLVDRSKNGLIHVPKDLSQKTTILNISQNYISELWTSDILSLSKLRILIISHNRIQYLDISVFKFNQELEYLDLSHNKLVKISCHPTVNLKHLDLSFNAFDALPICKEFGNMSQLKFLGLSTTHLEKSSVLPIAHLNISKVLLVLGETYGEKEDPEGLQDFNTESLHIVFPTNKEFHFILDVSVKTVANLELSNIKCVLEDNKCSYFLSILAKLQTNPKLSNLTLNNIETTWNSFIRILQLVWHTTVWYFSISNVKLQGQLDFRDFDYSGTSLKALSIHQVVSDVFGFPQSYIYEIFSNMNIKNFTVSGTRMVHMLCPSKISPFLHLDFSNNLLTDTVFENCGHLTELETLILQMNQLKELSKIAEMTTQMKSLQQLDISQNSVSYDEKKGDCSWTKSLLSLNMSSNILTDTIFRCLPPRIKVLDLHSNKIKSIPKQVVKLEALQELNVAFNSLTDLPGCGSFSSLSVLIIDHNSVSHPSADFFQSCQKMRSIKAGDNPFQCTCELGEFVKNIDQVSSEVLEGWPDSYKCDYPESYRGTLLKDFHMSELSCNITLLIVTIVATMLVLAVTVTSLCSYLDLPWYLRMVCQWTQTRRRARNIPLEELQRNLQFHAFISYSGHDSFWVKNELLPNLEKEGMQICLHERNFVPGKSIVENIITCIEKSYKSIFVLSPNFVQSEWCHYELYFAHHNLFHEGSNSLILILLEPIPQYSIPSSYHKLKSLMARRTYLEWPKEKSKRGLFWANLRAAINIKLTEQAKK
procedure.summary: cell-based
measured.quantity: EC50 (µM)
Write the answer as a number in µM, unit excluded.

Given the entry "CCCCCCCCCCCCCCCC(=O)N[C@@H](CSC[C@@H](COC(=O)CCCCCCCCCCC)OC(=O)CCCCCCCCCCC)C(=O)N[C@@H](C)C(=O)N[C@H](CCC(=O)O)C(N)=O" , report its measured EC50.
1.04
